Data provenance is patent US20240116985A1.

Biological target: full-length beta-Catenin (Uniprot ID P35222) (Homo sapiens, UniProt P35222)
Construct: 10 nM full-length beta-Catenin (Uniprot ID P35222)
Sequence (P35222 whole entry): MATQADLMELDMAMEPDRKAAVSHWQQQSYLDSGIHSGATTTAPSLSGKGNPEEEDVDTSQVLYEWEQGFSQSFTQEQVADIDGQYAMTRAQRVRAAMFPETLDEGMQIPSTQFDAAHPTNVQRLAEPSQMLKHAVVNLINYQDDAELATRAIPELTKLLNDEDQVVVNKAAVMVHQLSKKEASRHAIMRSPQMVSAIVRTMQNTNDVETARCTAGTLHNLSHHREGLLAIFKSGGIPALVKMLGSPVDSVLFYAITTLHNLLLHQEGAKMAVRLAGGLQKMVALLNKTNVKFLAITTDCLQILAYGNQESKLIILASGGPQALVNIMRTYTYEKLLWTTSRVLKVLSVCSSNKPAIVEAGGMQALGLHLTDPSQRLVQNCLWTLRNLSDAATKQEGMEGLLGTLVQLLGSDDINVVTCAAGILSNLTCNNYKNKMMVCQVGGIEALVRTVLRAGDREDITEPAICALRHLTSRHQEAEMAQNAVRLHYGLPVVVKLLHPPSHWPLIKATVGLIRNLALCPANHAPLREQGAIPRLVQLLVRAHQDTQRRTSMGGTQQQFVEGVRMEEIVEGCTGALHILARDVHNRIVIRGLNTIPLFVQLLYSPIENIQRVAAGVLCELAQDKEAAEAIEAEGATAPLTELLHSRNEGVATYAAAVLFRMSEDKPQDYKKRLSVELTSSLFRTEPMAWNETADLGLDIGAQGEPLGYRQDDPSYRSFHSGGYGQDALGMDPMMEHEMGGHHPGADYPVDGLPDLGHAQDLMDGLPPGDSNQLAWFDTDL
Assay: Fluorescence polarization IC50 (beta-catenin / 5FAM-TCF4 10-53 competition)
Format: binding
Settings: read-out: beta-Catenin FP IC50
REPORTED METRIC: IC50 (nM)
The figure you give is taken to be in nM; do not add the unit.

The following molecules have reported results that may help.
MOLECULE	IC50, nM
CC(=O)N1CCC[C@]12CC=CCCCC1(CCCC=CCCCOC(=O)N3CC[C@@](C(=O)N[C@@H](Cc4ccsc4)C(=O)N[C@@H](Cc4csc5ccccc45)C(=O)N[C@@H](CCC(N)=O)C(N)=O)(C3)NC(=O)[C@H](CC(N)=O)NC(=O)[C@H](Cc3ccccc3)NC(=O)[C@H](C)NC(=O)[C@H](C)NC(=O)[C@H](CCCNC(N)=O)NC(=O)[C@H](CC(=O)O)NC1=O)NC(=O)[C@H](CC(C)(C)C)NC(=O)[C@H](CC(=O)O)NC2=O (some centres unmarked)	16
CC(=O)N1CCC[C@]12CC=CCCCC1(CCCC=CCCCOC(=O)N3CC[C@@](C(=O)N[C@@H](Cc4ccccc4Cl)C(=O)N[C@@H](Cc4csc5ccccc45)C(=O)N[C@H](CO)[C@@H](C)O)(C3)NC(=O)[C@H](CC(N)=O)NC(=O)[C@H](Cc3ccccc3)NC(=O)[C@H](C)NC(=O)[C@H](C)NC(=O)[C@H](CC(=O)O)NC(=O)[C@H](CC(=O)O)NC1=O)NC(=O)[C@H](CC(C)(C)C)NC(=O)[C@H](CC(=O)O)NC2=O (some centres unmarked)	5
CC(=O)N1CCC[C@]12CC=CCCCC1(CCCC=CCCCOC(=O)N3CC[C@@](C(=O)N[C@@H](Cc4ccsc4)C(=O)N[C@@H](Cc4csc5ccccc45)C(=O)N[C@@H](Cc4c[nH]cn4)C(N)=O)(C3)NC(=O)[C@H](Cc3ccccc3)NC(=O)[C@H](Cc3ccccc3)NC(=O)[C@H](C)NC(=O)[C@H](C)NC(=O)[C@H](CC(=O)O)NC(=O)[C@H](CC(=O)O)NC1=O)NC(=O)[C@H](CC(C)(C)C)NC(=O)[C@H](CC(=O)O)NC2=O (some centres unmarked)	5
CC(=O)N1CCC[C@]12CC=CCCCC1(CCCC=CCCCOC(=O)N3CC[C@@](C(=O)N[C@@H](Cc4ccsc4)C(=O)N[C@@H](Cc4csc5ccccc45)C(N)=O)(C3)NC(=O)[C@H](CC(N)=O)NC(=O)[C@H](Cc3ccccc3)NC(=O)[C@H](C)NC(=O)[C@H](C)NC(=O)[C@H](CCCNC(N)=O)NC(=O)[C@H](CC(=O)O)NC1=O)NC(=O)[C@H](CC(C)(C)C)NC(=O)[C@H](CC(=O)O)NC2=O (some centres unmarked)	40

Below: the item to evaluate.
Req: Can you look up IC50 on full-length beta-Catenin (Uniprot ID P35222) (Homo sapiens, UniProt P35222) for CC(=O)N1CCC[C@]12CC=CCCCC1(CCCC=CCCCCCC[C@@](C)(C(=O)N[C@@H](Cc3ccccc3Cl)C(=O)N[C@@H](Cc3csc4ccccc34)C(=O)N[C@@H](CCC(N)=O)C(N)=O)NC(=O)[C@H]([C@@H](C)O)NC(=O)[C@H](Cc3ccccc3)NC(=O)[C@H](C)NC(=O)[C@H](C)NC(=O)[C@H](CCC(=O)O)NC(=O)[C@H](CC(=O)O)NC1=O)NC(=O)[C@H](CC(C)(C)C)NC(=O)[C@H](CC(=O)O)NC2=O (some centres unmarked) [I-1088] ?
Resp: 22
